target: Aspartate--tRNA(Asp/Asn) ligase (Mycobacterium tuberculosis (strain ATCC 25618 / H37Rv)) (UniProt P9WFW3); assay: Assay for Asp RNA synthetase-1 from Mycobacterium tuberculosis; format: functional; parameters: scale not given: in the data most compounds retested in dose-response had high values; details: 30 µM
Percent Effect listing for selected compounds.
Respond numerically; units are % and should not be typed.

Solved cases (5 shown):
# compound, valueReported
records = [
    ("COCCN(Cc1ccc(F)cc1Cl)C(=O)c1cccc[n+]1[O-]", -4.34),
    ("CCCc1n[nH]c(C2CN(CCCS(C)(=O)=O)CCO2)n1 (stereo unspecified)", -3.39),
    ("c1sc(C2CCCC2)nc1CN1CCn2c(nnc2C2CC2)C1", 3.23),
    ("Cc1ccc(-c2nnc(CN3CCc4cnc(C)nc4C3)o2)cc1", 2.13),
    ("CN1CCN(CC2CC2)C(=O)c2cnc(N3CCCCC3)nc21", 3.69),
]

Q) Look at this compound and give its reported Percent Effect. Cc1cnn(CC2CCCN2C(=O)c2cc3c(F)cccc3[nH]2)c1 (stereo unspecified)
A) 4.86

Q) Which value of Percent Effect has been reported for CCCc1nc(C(C)(C)NC(=O)C2CC(=O)N(CC3CC3)C2)no1 (stereo unspecified) in the records?
A) 3.35

Q) Entry "N#Cc1ccc(OCCOc2ccccc2C(=O)N2CCOCC2)cc1" has what Percent Effect?
A) 8.62

Q) Using the record for "c1cnn(Cc2nnc3n2CCCN(CC2CCOCC2)C3)c1" , report its Percent Effect.
A) 2.52

Q) Sample "Cc1nccn1-c1cc(CNC(=O)C(C)(C)C)ccn1" — what was its Percent Effect?
A) 10.6

Q) What value of Percent Effect has been recorded for this entry: "O=S(=O)(c1cccs1)N1CC[C@H](O)[C@@H]1Cc1ccncc1"
A) -0.474

* * *

Target: Aspartate--tRNA(Asp/Asn) ligase (Mycobacterium tuberculosis (strain ATCC 25618 / H37Rv))
Sequence (whole entry): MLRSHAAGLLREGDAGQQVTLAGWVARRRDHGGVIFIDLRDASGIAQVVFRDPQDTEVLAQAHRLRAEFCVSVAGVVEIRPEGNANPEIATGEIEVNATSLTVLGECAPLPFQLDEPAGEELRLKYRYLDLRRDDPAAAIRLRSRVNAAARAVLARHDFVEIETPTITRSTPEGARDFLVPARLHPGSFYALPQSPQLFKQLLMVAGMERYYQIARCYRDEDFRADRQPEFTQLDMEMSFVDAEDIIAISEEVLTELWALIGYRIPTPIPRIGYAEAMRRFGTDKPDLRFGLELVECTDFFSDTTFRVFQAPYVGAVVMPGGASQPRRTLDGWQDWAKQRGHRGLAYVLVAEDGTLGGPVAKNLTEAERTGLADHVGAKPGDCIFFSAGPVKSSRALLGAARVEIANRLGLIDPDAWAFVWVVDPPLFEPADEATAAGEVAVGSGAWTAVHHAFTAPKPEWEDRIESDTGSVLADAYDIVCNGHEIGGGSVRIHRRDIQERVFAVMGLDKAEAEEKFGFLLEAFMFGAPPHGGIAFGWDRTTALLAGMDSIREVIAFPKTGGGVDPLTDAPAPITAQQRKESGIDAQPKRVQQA
Test: Assay for Asp RNA synthetase-1 from Mycobacterium tuberculosis
Type: functional
Parameters: scale not given: in the data most compounds retested in dose-response had high values
Settings: 30 µM
resultType: Percent Effect (%)
Express the result in % but write the number alone.

# molecule, Percent Effect / %
records = [
    ("Cc1cc(C)c(CNC(=O)N2CCCC2c2cccn2C)c(=O)[nH]1 (stereo not given)", -3.71),
    ("Clc1ccc2cccnc2c1CN1CCCC(Cn2cncn2)C1 (stereo not given)", -1.86),
    ("COCC(c1cccc(C(F)(F)F)c1)N(C)C(=O)c1cc(C)no1 (stereo not given)", -1.95),
    ("CC(NC(=O)Cc1cccs1)c1nnc2n1CCCCC2 (stereo not given)", -4.69),
    ("CC(C)(C)C(=O)NCCc1ccn(-c2ccccc2)n1", -7.82),
    ("CN(C)C(=O)c1cnc2n1CCN(Cc1ccccc1)C2", 0.632),
    ("COCC(=O)NCCn1ccc2c(OC)cccc21", -1.31),
    ("COc1ccc(OCC(=O)NC(C)c2ccc(F)cc2)c(C(=O)O)c1 (stereo not given)", 0.691),
]

Q) Request: Percent Effect, test system Aspartate--tRNA(Asp/Asn) ligase (Mycobacterium tuberculosis (strain ATCC 25618 / H37Rv)), entry CC(C)c1cc(NC(=O)CN2CCCC2Cn2cccn2)on1 (stereo not given)
A) -1.29

Q) Tell me reported Percent Effect for Cc1noc(Cl)c1CCC(=O)N1CCCCC1Cn1cccn1 (stereo not given) , tested with Aspartate--tRNA(Asp/Asn) ligase (Mycobacterium tuberculosis (strain ATCC 25618 / H37Rv)).
A) 1.35

Q) Recorded Percent Effect for "COC[C@@]12CCO[C@@H]1CCN(C(=O)COc1ccccc1OC)C2" with Aspartate--tRNA(Asp/Asn) ligase (Mycobacterium tuberculosis (strain ATCC 25618 / H37Rv)), please?
A) 4.72

Q) Record "Cc1noc([C@H]2C[C@H]3OCC[C@H]3N(S(=O)(=O)C3CC3)C2)n1" : what is its Percent Effect with Aspartate--tRNA(Asp/Asn) ligase (Mycobacterium tuberculosis (strain ATCC 25618 / H37Rv))?
A) 0.456

Q) Recall the recorded Percent Effect for c1cnn(CC2CN(CCc3ccncc3)CCO2)c1 (stereo not given) with Aspartate--tRNA(Asp/Asn) ligase (Mycobacterium tuberculosis (strain ATCC 25618 / H37Rv)) and state it.
A) 2.1

Q) Checklist item: Percent Effect tested on Aspartate--tRNA(Asp/Asn) ligase (Mycobacterium tuberculosis (strain ATCC 25618 / H37Rv)), entry "COc1ncc(C2(O)CCN(Cc3ccccc3O)CC2)c(OC)n1" , value?
A) -1.78

Q) Provide value of Percent Effect for this record tested with Aspartate--tRNA(Asp/Asn) ligase (Mycobacterium tuberculosis (strain ATCC 25618 / H37Rv)): "Cc1ccn(-c2ccccc2NCc2cccnc2C)n1"
A) -3.62

Q) Any idea what Percent Effect came out for "Cc1cc(C[C@@H]2COC[C@@H]2NC(=O)CN2CCCC2)on1" on Aspartate--tRNA(Asp/Asn) ligase (Mycobacterium tuberculosis (strain ATCC 25618 / H37Rv))?
A) 4.6

Q) Short answer please: Percent Effect, Aspartate--tRNA(Asp/Asn) ligase (Mycobacterium tuberculosis (strain ATCC 25618 / H37Rv)), entry CNC(=O)C1Cn2ccnc2C2(CCN(CCF)CC2)O1 (stereo not given)
A) 2.17

Q) Return Percent Effect measured with Aspartate--tRNA(Asp/Asn) ligase (Mycobacterium tuberculosis (strain ATCC 25618 / H37Rv)) given this molecule: "COc1ccc(OCc2nc(C(=O)N3CC(O)C3)co2)cc1"
A) -0.0558

Q) Percent Effect of CC(NC(=O)CSCC#N)c1ccccc1 (stereo not given) on Aspartate--tRNA(Asp/Asn) ligase (Mycobacterium tuberculosis (strain ATCC 25618 / H37Rv))?
A) 2.98
